src = the RNAGym collection of RNA variant scans (doi:10.7554/elife.90254)

B1: LINE1-full (parent)
chain: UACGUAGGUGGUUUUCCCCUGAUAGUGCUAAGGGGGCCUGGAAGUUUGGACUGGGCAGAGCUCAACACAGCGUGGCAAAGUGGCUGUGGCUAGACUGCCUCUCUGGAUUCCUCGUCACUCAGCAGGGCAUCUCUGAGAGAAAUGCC

# Variants of: B1
# Experimental Protocol: self-cleavage, relative activity (ratio to wild type); higher = more cleavage; in vitro, sequencing; the parent is a self-cleaving ribozyme
Answer each item with its documented self-cleavage.
# print the numeric value only

# query: self-cleavage of entry A42G U109A
1.43

Can you handle U112C G144A next?
1.58

Same lookup for A78U U130A , please.
2.96

What about this variant? U12C A107C
1.53

Then this variant: U85C C98U
0.01

// query: C19U U39A
1.07

Same again, this time with U13C A117G
1.02

Also check U104A A136G
1.39

Check U12C A107U too.
0.66

Would you kindly repeat that for A77G A121U ?
2.74

Then what about the variant G48U A64G ?
0.18

Query A2U A129U next
0.75

What would you report for U9A U143G ?
1.98

For A50U C110A then?
1.53

Would you mind doing U47G U81A as well?
1.81

Try U109C A121G next.
1.58

Then U14C C113U ?
0.82

Please give the result for G70A C128A too.
0.04

// next record A92G A121U
0.09

Try A6U A43U next.
0.89

Thanks! And U29A A142C ?
0.56

// next record G48A G122A
1.27

What do you get for A2U A138G ?
1.06
